Collected IC50 for Fibroblast growth factor receptor 1 (Homo sapiens, UniProt P11362) across several studies; compounds listed below.
measured-parameter: IC50 (nM)

I = Cn1cc(-c2cnc3c(c2)ncn3-c2cc(NS(=O)(=O)c3ccccc3)cc(-c3ccc(F)cc3F)c2)cn1
II = COc1cc(OC)c(F)c(Cc2c[nH]c3ncc(-c4cnn(C5CCN(CCO)CC5)c4)cc23)c1F
III = CC(=O)Nc1cc(-c2ncc(F)cc2F)cc(-n2cnc3cc(-c4cnn(C)c4)ccc32)n1
Lab note: IC50 ranking, ascending, for the listed compounds. Response format: the labels, sorted as the prompt asks. II, III, I

* * *

Collected pIC50 for Fibroblast growth factor receptor 1 (Homo sapiens, UniProt P11362) across several studies; molecules listed below.
pIC50: −log10 of the molar value.

Known results for molecules:
molecule	reported-result
COCCNc1cc(NC(=O)N2CCCc3cc(CN4C(=O)COCC45CC5)c(C=O)nc32)ncc1C#N	< 5.00
COc1ccc(Nc2nc3ccccc3n2-c2ncnc(Nc3cc(OC)c(OC)c(OC)c3)n2)cc1	> 6.10
COc1cc(Nc2ncnc(Nc3cnc4ccccc4c3)n2)cc(OC)c1OC	5.23 to 6.00
COc1cc(Nc2ncnc(-c3c(O)[nH]c4ccccc34)n2)cc(OC)c1OC	> 5.99

The recorded pIC50 for entry COc1cc(OC)c(F)c(-c2cc3[nH]nc(-c4ccc5c(c4)CCC(C(=O)N(C)C)O5)c3cn2)c1F (centres unmarked) equals > 7.00

The recorded pIC50 for entry CNC(=O)c1cc(C)c(F)c(-c2cnn3cc(-c4cnc(N5CCN(C)CC5)o4)c(N[C@H]4CCOC4)nc23)c1 equals 6.70 to 7.52

The recorded pIC50 for entry COCCN1CCC(Nc2ccc3c(c2)/C(=C(\c2ccccc2)c2ncc[nH]2)C(=O)N3)CC1 equals > 7.30

The recorded pIC50 for entry COc1cc(OC)c(F)c(N2Cc3cnc(N)c(Cl)c3N(C)C2=O)c1F equals > 7.00

* * *

Collected IC50 for UniProt P11362 across several studies; compounds listed below.

molecular-string	IC50
COc1cc(OC)c(Cl)c(-c2ncc3c(-c4ccc(N5CCN(C)CC5)cc4)n[nH]c3n2)c1Cl	< 100 nM
COc1cc2nccc(Oc3ccc(NC(=S)NC4CC4)c(Cl)c3)c2cc1C(=O)NCC(F)(F)F	200 to 1000 nM
C=CC(=O)NCc1cc2c(cn1)CN(c1c(F)c(OC)cc(OC)c1F)C(=O)N2CC(F)(F)F	> 200 nM

Query compound follows.
The recorded IC50 for entry COc1cc(CCc2cnc3[nH]c(-c4ccc(N5CCN(C)CC5)cc4)c(Br)c3n2)cc(OC)c1 equals < 100 nM

* * *

Collected IC50 for Fibroblast growth factor receptor 1 (Homo sapiens) across several studies; molecules listed below.

Known results for molecules:
molecule	assayed-system	reported-result
COc1cc(OC)c(F)c(-c2ncc3c(-c4ccc5c(c4)CN([C@H]4CC[C@@H](O)CC4)C5=O)n[nH]c3n2)c1F	Fibroblast growth factor receptor 1 (Homo sapiens)	< 0.1 µM
C=CC(=O)N1C[C@@H](Nc2ncc3cc(-c4c(Cl)c(OC)cc(OC)c4Cl)ccc3n2)C[C@H]1C(C)(C)O (stereo in doubt)	Fibroblast growth factor receptor 1 (Homo sapiens)	0.0037 µM
[2H]C([2H])(c1ccc(/C=C/c2n[nH]c3ccc(OC(C)c4c(Cl)cncc4Cl)cc23)nn1)N1CCOCC1 (stereo not shown)	Fibroblast growth factor receptor 1 (Homo sapiens)	≤ 0.01 µM
CC(=O)Nc1cc(-c2ccc(F)cc2F)cc(-n2cnc3cc(-c4ccc(F)nc4)cnc32)c1	Fibroblast growth factor receptor 1 (Homo sapiens)	0.0149 µM
COc1cc(Nc2ncnc(Nc3ccc(Cl)cc3)n2)cc(OC)c1OC	Fibroblast growth factor receptor 1 (Homo sapiens)	< 1.03 µM
COc1cc2nccc(Oc3ccc(NC(=S)N4CC[C@@H](F)C4)c(Cl)c3F)c2cc1C(N)=O	Fibroblast growth factor receptor 1 (Homo sapiens)	0.05 to 0.2 µM

Query molecule follows.
The recorded IC50 for entry Cn1cnc(-c2ccc3c(Oc4ccc5c(C(=O)NC6CC6)coc5c4)ccnc3c2)c1 equals < 0.05 µM

* * *

Collected pIC50 for Fibroblast growth factor receptor 1 (Homo sapiens, UniProt P11362) across several studies; compounds listed below.
pIC50: −log10 of the molar value.

Known results for compounds:
compound	assayed-system	pIC50
COCCN1CCC(Oc2ccc3c(c2)/C(=C(\c2cc(F)cc(F)c2)c2nc4ccccc4[nH]2)C(=O)N3)CC1	Fibroblast growth factor receptor 1 (Homo sapiens, UniProt P11362)	6.30 to 7.30
COc1cc(Nc2ncnc(-n3c(NCc4ccc(Cl)cc4)nc4ccccc43)n2)cc(OC)c1OC	Fibroblast growth factor receptor 1 (Homo sapiens, UniProt P11362)	5.33 to 6.11
COc1cc2nccc(Oc3ccc(NC(=S)NC4CC4)c(Cl)c3)c2cc1NC(C)=O	Fibroblast growth factor receptor 1 (Homo sapiens, UniProt P11362)	6.00 to 6.70
COc1cc(CCc2cnc3[nH]c(-c4ccc(N5CCN(C)CC5)cc4)c(C#N)c3n2)cc(OC)c1	Fibroblast growth factor receptor 1 (Homo sapiens, UniProt P11362)	> 7.00
CC(C)Nc1ncccc1-c1ncnc(Nc2ccc(C(N)=O)cc2)n1	Fibroblast growth factor receptor 1 (Homo sapiens, UniProt P11362)	< 4.89

The recorded pIC50 for entry CNC(=O)c1cc(C)c(F)c(-c2cnn3cc(-c4cnn(C5CN(C)C5)c4)c(N[C@H]4CCOC4)nc23)c1 equals 7.52 to 8.00

The recorded pIC50 for entry C=CC(=O)NCc1cc2c(cn1)CN(c1c(F)c(OC)cc(OC)c1F)C(=O)N2C1CCCC1 equals 6.70 to 7.52

The recorded pIC50 for entry CNC(=O)c1cccc(-c2cnn3cc(-c4cnn(C)c4)c(OC4CCOC4)nc23)c1 (racemic) equals 6.70 to 7.52

The recorded pIC50 for entry C[C@]12O[C@H]([C@H](O)[C@H](O)[C@H]1O)n1c3ccccc3c3c4c(c5c6ccccc6n2c5c31)C(=O)NC4=O equals 8.05

The recorded pIC50 for entry N#Cc1ccc(NC(=O)N2CCCc3ccc(C=O)nc32)nc1 equals < 5.00

The recorded pIC50 for entry COc1cc(Nc2ncnc(NC(=O)Nc3ccccc3)n2)cc(OC)c1OC equals < 4.94

The recorded pIC50 for entry COc1cc(Nc2ncnc(Nc3ccc(O)cc3Cl)n2)cc(OC)c1OC equals 5.23 to 6.00

The recorded pIC50 for entry COc1cc(OC)c(F)c(CCc2cnc3[nH]c(-c4cnn(CC(C)(C)O)c4)cc3n2)c1F equals > 7.00

The recorded pIC50 for entry CC(Oc1ccc2[nH]nc(/C=C/c3ccc(CN4CCOCC4)cc3)c2c1)c1c(Cl)cncc1Cl (stereo not shown) equals 7.30 to 8.00

The recorded pIC50 for entry CC(Oc1ccc2[nH]nc(/C=C(\F)c3ccc(CNC4CCOCC4)nc3)c2c1)c1c(F)cccc1F (stereo not shown) equals 6.00 to 7.30

* * *

Collected IC50 for Fibroblast growth factor receptor 1 (Homo sapiens, UniProt P11362) across several studies; molecules listed below.

molecular-string	IC50
COc1ccc2c(c1)c(CCNC(C)=O)cn2-c1ncnc(Nc2cc(OC)c(OC)c(OC)c2)n1	> 9140 nM
COc1cc2nccc(Oc3ccc(NC(=S)NC4CCC(F)(F)CC4)c(Cl)c3)c2cc1C(N)=O	200 to 1000 nM
Cn1cc(-c2ccc3c(c2)ncn3-c2cc(Nc3nccs3)cc(-c3ccc(F)cc3F)c2)cn1	9 nM
COc1cc(OC)c(Cl)c(-c2ncc3c(-c4ccc5c(c4)CCNC5=O)n[nH]c3n2)c1Cl	< 100 nM
COCCOc1ccc(Nc2ncnc(-n3c(N)nc4ccccc43)n2)cc1OC	982 to 5890 nM
COc1cc2nccc(Oc3ccc(NC(N)=S)c(Cl)c3)c2cc1C(N)=O	200 to 1000 nM
C=CC(=O)NCc1cc2c(cn1)CN(c1c(F)c(OC)cc(OC)c1F)C(=O)N2CC1CCN(C)CC1	> 200 nM

Query molecule follows.
Item COc1cc2nccc(Oc3ccc(NC(=S)N4CCC(F)(F)C4)c(Cl)c3)c2cc1C(N)=O was tested on Fibroblast growth factor receptor 1 (Homo sapiens, UniProt P11362); the reported IC50 is 200 to 1000 nM

* * *

Collected IC50 for Fibroblast growth factor receptor 1 (Homo sapiens, UniProt P11362) across several studies; molecules listed below.

Known results for molecules:
molecule	assayed-system	IC50
COCCN1CCC(Nc2ccc3c(c2)/C(=C(\c2ccc(C(F)(F)F)c(F)c2)c2ncc[nH]2)C(=O)N3)CC1	Fibroblast growth factor receptor 1 (Homo sapiens, UniProt P11362)	50 to 500 nM
COC[C@H](C)Nc1cc(NC(=O)N2CCCc3cc(CN4CC[C@H](OC)C4=O)c(C=O)nc32)ncc1C#N	Fibroblast growth factor receptor 1 (Homo sapiens, UniProt P11362)	> 10000 nM
COc1cc2nccc(Oc3ccc(NC(=S)NC4CC=C(F)CC4)c(Cl)c3)c2cc1C(N)=O (stereo not drawn)	Fibroblast growth factor receptor 1 (Homo sapiens, UniProt P11362)	200 to 1000 nM

Query molecule follows.
Item C[C@@H](Oc1ccc2[nH]nc(/C=C(\F)c3ccc(NC4CCOCC4)nc3)c2c1)c1c(Cl)cncc1Cl was tested on Fibroblast growth factor receptor 1 (Homo sapiens, UniProt P11362); the reported IC50 is 50 to 1000 nM
